target-of-assay: Sterol O-acyltransferase 2 (Homo sapiens) (UniProt O75908)
Sequence (O75908 whole entry): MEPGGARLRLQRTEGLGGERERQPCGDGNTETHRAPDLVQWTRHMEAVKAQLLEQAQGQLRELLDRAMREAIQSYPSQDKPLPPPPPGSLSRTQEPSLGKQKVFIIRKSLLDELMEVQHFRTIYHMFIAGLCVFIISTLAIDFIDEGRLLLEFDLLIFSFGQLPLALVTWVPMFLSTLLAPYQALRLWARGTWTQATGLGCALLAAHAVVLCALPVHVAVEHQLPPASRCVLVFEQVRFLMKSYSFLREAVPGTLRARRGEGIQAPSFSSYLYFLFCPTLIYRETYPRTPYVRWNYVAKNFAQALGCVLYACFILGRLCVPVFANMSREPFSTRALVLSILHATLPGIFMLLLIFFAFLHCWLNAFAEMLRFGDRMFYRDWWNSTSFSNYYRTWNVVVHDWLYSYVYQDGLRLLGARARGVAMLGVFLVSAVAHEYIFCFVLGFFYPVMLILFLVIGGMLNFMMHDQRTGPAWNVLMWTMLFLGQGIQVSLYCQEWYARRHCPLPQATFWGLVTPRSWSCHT
protocol-summary: Inhibition of human ACAT2 expressed in insect Hi5 cells at 50 uM
test-context: BTI-TN-5B1-4
# maps each entry to its inhibition
Express the result in % but write the number alone.

Some compounds with known inhibition results, for comparison:
                   structure_string  measured_result
0   CCCCCCCCC(=O)Nc1ccccc1-c1ccccc1               27
1      CCCCCCCCNc1ccc(-c2ccccc2)cc1                6
2  CCCCCCCC(=O)Nc1ccc(-c2ccccc2)cc1               11

State recorded inhibition with Sterol O-acyltransferase 2 (Homo sapiens) (UniProt O75908), entry `CCCCCCCC(=O)Nc1ccccc1-c1ccccc1` , no comment.
39

The reported measurements were obtained from ChEMBL document CHEMBL1141600.
